FYI, the data here is from the supplement of paper PMC9170038.

Assign apparent KD of MS2 coat protein to each entry below.
Test system: MS2 coat protein
TEST PROTOCOL: apparent KD of MS2 coat protein; designed switch direction (-1 OFF switch, 1 ON switch): -1; higher = weaker reporter binding
CONDITIONS: Eterna round: R95; input ligand: microRNA oligo, concentration not stated
All answers are understood in nM, so give the number only.

Sample AUGAGACAUGAGGAUCACCCAUGUGAGGAUAUGUAUGGAUGAAGGAAAGAAUGAGAGAACAGAAGGCACGAAGA [JR_Exclu1_Sub064] (puzzle: Exclusion 1) — what was its apparent KD of MS2 coat protein?
98.9

Sample GUGUACGGAGGAUAUGCUGGAAUCUAGCGAAGCUAGGUUCCACAUGAGGAUCACCCAUGUAGAAGGCUGUACAC [Dot plot directed A v5] (puzzle: Exclusion 2) — what was its apparent KD of MS2 coat protein?
21.1

Sample GAAAAGGUAGGAUAUGCGAAAAAAAAGGGUAGAAAAAAAACACAUGAGGAUCACCCAUGUAGAAGGACCAAAAG [salish99_ex2_r3_031] (puzzle: Exclusion 2) — what was its apparent KD of MS2 coat protein?
31.2

Sample CUGAAGAAGUUAGUGGCCUACAUGAGGAUCACCCAUGUGAGGGACAUGUCGAGGCAGAAGCUGAGUGCUCGUCUGUA [JR_SV3TOV1_Sub042] (puzzle: Sensor v3, turn-off variant 1) — what was its apparent KD of MS2 coat protein?
20

Sample GGUUGACAUGAGGAUCACCCAUGUGAGGAUAUGCGAGAGAAAAAAGUGAGGAAGAAAAGCAGAAGGCGCUGACG [salish99-ex1_r3_002] (puzzle: Exclusion 1) — what was its apparent KD of MS2 coat protein?
28.6

Sample GCAGGAUAAGUGAGGAUAUACCUCUGGAUACAGAGGUAGAAGGCACAUGAGGAUCACCCAUGUCUAUCACCUGC [Fiskers BMX 4 - 78] (puzzle: Brourd's mod of Exclusion 4) — what was its apparent KD of MS2 coat protein?
14.5

Sample GAAAAGGUAGGAUAUACGAAAAUAAAGGGUAGAAAAAAAACACAUGAGGAUCACCCAUGUAGAAGGACCAAAAG [salish99_ex2_r3_083] (puzzle: Exclusion 2) — what was its apparent KD of MS2 coat protein?
33.4

Sample UUUUACCGAGGAUAUACAUUUUUUUUAUUAUCCUCAUUAUUACAUGAGGAUCACCCAUGUAGAAGGCGGAUUUU [My Design] (puzzle: Exclusion 2) — what was its apparent KD of MS2 coat protein?
56.9

Sample UCGCUGCGAGGAUAUACAUGAGGAUCACCCAUGUGCGGGUCCGGGUCUUCGUCCAUUAGUAGAAGGCGCAGUGA [JL Laongeedie mod 4] (puzzle: Exclusion 3) — what was its apparent KD of MS2 coat protein?
99.9

Sample GUGAAGAAGUUAGUGGCCUACAUGAGGAUCACCCAUGUGAGGGAAAUGUUGAGGCGAAAGUUGUGUGCUCGUCUGUA [JR_SV3TOV1_Sub040] (puzzle: Sensor v3, turn-off variant 1) — what was its apparent KD of MS2 coat protein?
52.1

Sample CAGUACUGAGGAUAUACAUGAGGAUCACCCAUGUGUUCCAGCUAGGAUACUAGCAAAAGUAGAAGGCAGUACUG [salish99_ex3_r3_095x] (puzzle: Exclusion 3) — what was its apparent KD of MS2 coat protein?
30.4
